- targetOfAssay: T1, recombinant CD3D&E protein (human CD3-his tag) (human, UniProt P04234 22-105; P07766 23-126, limits assumed)
- T1 construct: Analyte in Biacore; also called CD3D&E-His; CD3d&ε-His
- T1 sequence (P04234 22-105 limits assumed, chain 1 of 2): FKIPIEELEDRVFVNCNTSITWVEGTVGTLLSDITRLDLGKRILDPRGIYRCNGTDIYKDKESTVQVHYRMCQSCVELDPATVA
- T1 sequence (P07766 23-126 limits assumed, chain 2 of 2): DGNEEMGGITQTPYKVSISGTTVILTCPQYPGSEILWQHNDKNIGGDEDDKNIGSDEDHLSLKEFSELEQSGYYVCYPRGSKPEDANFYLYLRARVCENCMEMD
- experimentSummary: SPR Biacore, Ab captured on Protein A;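 further: humanized antibodies on a Protein A chip, human CD3-his analyte flowed over in serial dilutions for 3 min, dissociation tracked 120–360 s on a Biacore T200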
measuredQuantity: pKd
One number for each entry, as −log10 of the molar value.

binder: 155A9B1 chimeric mAb (antibody, V domains shown, Chimeric mAb) VH: QVQLKESGPGLVQPSQTLSLTCTVSGFSLTSYNVHWVRQPPGKGLEWMGRVRYNGDTSYNSALKSRLSISRDTSKNQAFLKMNSLQIDDTGTYYCTRGPYGGSSEPLFDYWGQGVMVTVSS VL: DIKMTQSPSFLSASVGDRVTINCKASQNINKYLNWFQQKLGEAPRLLIYTTNNLQTGIPSRFSGSGSGTDFTLTISSLQPEDVATYFCLQHNSGYTFGAGTKLELK
pKd: 7.44
--
binder: Hu153A6B1-1 (antibody, V domains shown, humanized mAb) VH: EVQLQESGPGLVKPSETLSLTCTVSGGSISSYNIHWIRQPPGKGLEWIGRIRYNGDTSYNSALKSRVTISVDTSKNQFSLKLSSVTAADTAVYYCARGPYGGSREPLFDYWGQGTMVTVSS VL: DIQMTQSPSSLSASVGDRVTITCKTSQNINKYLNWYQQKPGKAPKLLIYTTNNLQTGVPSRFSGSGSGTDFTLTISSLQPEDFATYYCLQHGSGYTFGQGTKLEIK
pKd: 8.06

Query: I would be grateful if you could share the reported pKd for 153A6B1 chimeric mAb (antibody, V domains shown, Chimeric mAb of the hybridoma clone; also called 153A6B1C8) VH: QVQLKESGPGLVQPSQTLSLTCTVSGFSLTSYNIHWVRQPPGKGLEWMGRIRYNGDTSYNSALKSRLSISRDTSKNQVFLKMSSLQTDDTGTYYCTRGPYGGSREPLFDYWGQGVMVTVSS VL: DIKMTQSPSFLSAAVGDRVTINCKTSQNINKYLNWFQQKLGAAPKLLIYTTNNLQTGIPSRFSGSGSGTDFTLTISSLQPEDVATYFCLQHGSGYTFGAGTKLELK .
Reply: 8.06

meta.source: patent US20240417469A1
